System: tubulin
assay_name: Inhibition of tubulin assembly
reported_metric: Activity as tubulin polymerization/assembly inhibitor (in words)

compound: COC(=O)Nc1nc2ccc(/C=C\c3cc(OC)c(OC)c(OC)c3)cc2[nH]1 [Compound 1]
tested_on: tubulin
reported_measurement: excellent activities
//
compound: COC(=O)Nc1nc2ccc(C(=O)c3sccc3O)cc2[nH]1 [Compound 4]
tested_on: tubulin
reported_measurement: excellent activities
//
compound: COC(=O)Nc1nc2ccc(C(=O)c3ccc(OC)cc3O)cc2[nH]1 [Compound 2]
tested_on: tubulin
reported_measurement: excellent activities
